system: methionyl-tRNA synthetase (Trypanosoma brucei brucei); assay: T. brucei MetRS inhibitors, primary screen, biochemical, luminescence (AID 624268);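 also: 0% = DMSO wells median and 100% = median of wells with control inhibitor compound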; conditions: purified T. brucei MetRS, ATP depletion, Kinase-Glo luminescence; at 11.9 µM; hits give high values
Out of some 360,000 compounds screened, about 1,500 (0.42%) were called active. The full list was thinned out, with actives kept by preference.
Readout: inhibition (%)
Form entry: value (%) — number only.

query: Recorded inhibition of `CC(C)Oc1ccc(Cc2n[nH]c(=S)n2Cc2ccccc2)cc1Cl` , please.
result: -0.26

query: Need inhibition, item `Cc1ccc2[nH]cc(CCCN3C(=O)c4ccccc4C3=O)c2c1`
result: -0.1

query: Would you mind telling me what inhibition value was observed for `Cc1ccc(C)c(N2C(=O)CS/C2=N\NC(=O)c2ccccc2Cl)c1` ?
result: -0.16

query: Can you share its inhibition? I mean this compound: `Cn1c(CCCOc2ccc(Cl)cc2Cl)n[nH]c1=S`
result: 7.11

query: Recorded inhibition of `Cc1ccc(C)c2[nH]c(=O)c(CCNC(=O)CC(C)C)cc12` , please.
result: 0.44

query: Item under review: `C=CCSc1nsc(NC(=O)Nc2cccc(C(C)=O)c2)n1` . Reported inhibition?
result: -1.33

Others:
query: Dear colleague, I am looking for the recorded inhibition of the following compound: `Cc1cccc(N=Nc2c(O)[nH]c3ccc(F)cc23)c1`
result: 0.2
